Entry source: PubChem BioAssay AID1159580

Assay: chemical genetic growth profiling, strain panel (AID 1159580);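 also: tested at 20 µM; growth read once vehicle control cultures reached saturation at 30 °C; 1 = growth at the plate median or of vehicle wells; lower values mean less growth of the strain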
Details: S. cerevisiae deletion strains, growth OD, locus YPR106W, strain ISR1, hits give low values
The campaign covered roughly 5,500 compounds. About 2,000 (36%) were called active. Another 18% or so got no clear call; they are omitted. The list shows a part of the results.
endpoint: normalized growth
One number for each entry.

# compound, normalized growth
records = [
    ("O=C1/C(=C/c2cccs2)COc2ccccc21", 0.901),
    ("Cc1ccc(N2C(=O)CSC2c2ccc(Cl)c(Cl)c2)cc1Cl (centres undefined)", 0.971),
    ("CC1(C)c2ccccc2N(CCC(N)=O)C12C=Cc1c(ccc3ccccc13)O2 (centres undefined)", 0.957),
    ("Cc1nn(Cc2nnc(SCc3cccc(C(F)(F)F)c3)o2)c(C)c1Br", 0.975),
    ("CS(=O)(=O)c1sc(C(=O)Sc2ccc(Cl)cc2)c2c1C=CCC2", 0.928),
    ("COc1ccc(OC)c(-c2ccn[nH]2)c1OCc1ccccc1", 1),
    ("COc1cc(CC/C(C)=N/O)ccc1OCc1ccc(Cl)cc1Cl", 0.976),
    ("Cc1ccc(S(=O)(=O)Nc2ccc(Oc3ccc(F)cc3)cc2)cc1", 0.965),
]

Consider now this further compound.
Lookup result for `O=[N+]([O-])c1ccc(-c2csc(Nc3ccncc3)n2)cc1` ; measured normalized growth: 0.98

====

Experiment: chemical genetic growth profiling, strain panel (AID 1159580)
Details: S. cerevisiae deletion strains, growth OD, locus YLR058C, strain SHM2, hits give low values
Out of some 5,500 compounds screened, about 2,000 (36%) were called active. Roughly 18% stayed inconclusive and do not appear here. The list shows a part of the results.
I'd be grateful if you could share measured normalized growth for these entries.
Numbers only.

Field: normalized growth. Fill in for each record below.
1. C=C1C(C2(C)C=CC(=O)C(C)(C)C2CC(=O)OC)CC[C@@]2(C)[C@H](c3ccoc3)OC(=O)C3OC132 (stereo partly drawn)
2. C[C@H](N)[C@H](O)c1ccccc1
3. N#C/C(=C\c1cccc(O)c1)C(=O)O

1. 0.979
2. 1
3. 0.979

Field: normalized growth. Fill in for each record below.
1. N[C@@H]1[C@@H](O)[C@H](O)[C@@H](CO)O[C@H]1O
2. COc1cc([C@@H]2c3cc4c(cc3[C@H](OC(C)=O)[C@H]3COC(=O)[C@@H]23)OCO4)cc(OC)c1OC

1. 1.01
2. 1.01

====

Assay: chemical genetic growth profiling, strain panel (AID 1159580)
Conditions: S. cerevisiae deletion strains, growth OD, locus YLR418C, strain cdc73, hits give low values
The campaign covered roughly 5,500 compounds. About 2,000 (36%) were called active. Inconclusive results (about 18%) are left out. The list shows a part of the results.
endpoint: normalized growth

Field: example entries. Status: answers known.
# compound, normalized growth
records = [
    ("COc1c2ccccc2nc2occc12", "0.744 (active)"),
    ("COc1cc(OC)c2c3c1C(=O)c1c(OC)cc(C)c4c(OC)cc(c-3c14)C(C)(C)C2=O", "0.947 (inactive)"),
    ("O=C(Nc1ccccc1)Nc1ccccc1", "1.06 (inactive)"),
]

Field: normalized growth. Fill in for each record below.
1. C[C@H](CCC(=O)O)[C@H]1CCC2C3C(CC[C@@]21C)[C@@]1(C)CC[C@@H](O)C[C@H]1C[C@@H]3O (some centres undefined)
2. COC(=O)CCC(C)[C@H]1CCC2C3C(C[C@H](O)[C@@]21C)[C@@]1(C)CC[C@@H](O)C[C@H]1C[C@H]3O (some centres undefined)

["0.965 (inactive)", "0.932 (inactive)"]

====

Test: chemical genetic growth profiling, strain panel (AID 1159580)
Conditions: S. cerevisiae deletion strains, growth OD, locus YJR043C, strain POL32
Among all 5,500 compounds or so, about 2,000 (36%) were called active. Inconclusive results (about 18%) are left out. Cut-off read from the data, not from the text of the source: active = normalized growth mostly below about 0.91 (no sharp cut-off); inconclusive = no clear call, values can overlap the other calls; inactive = mostly above about 0.92. Some of the results follow.
Give one outcome, nothing more. List: TRUE for active, FALSE for inactive

See these solved cases before continuing.
# molecule, class.name
data = [
    ("S=P(N1CC1)(N1CC1)N1CC1", "FALSE"),
    ("CC(=O)Nc1nnc(S(N)(=O)=O)s1", "TRUE"),
    ("CN[C@@H]1[C@H](OC2[C@H](O[C@H]3[C@H](O)[C@@H](O)[C@H](N=C(N)N)[C@@H](O)[C@@H]3N=C(N)N)O[C@@H](C)[C@]2(O)C=O)O[C@@H](CO)[C@H](O)[C@H]1O (some centres undefined)", "FALSE"),
    ("Cn1nccc1NS(=O)(=O)c1cccc(Cl)c1", "FALSE"),
    ("CCC(=O)c1c(C)c(C)c(C)c(C)c1C", "FALSE"),
    ("Cc1nc2sccn2c(=O)c1CCN1CCC(=C(c2ccc(F)cc2)c2ccc(F)cc2)CC1", "TRUE"),
    ("CC1CCC2(OC1)OC1CC3C4CCC5C[C@@H](O)CCC5(C)C4=CCC3(C)C1[C@@H]2C (some centres undefined)", "FALSE"),
    ("O=c1cc(-c2cc(O)c(O)c(O)c2)oc2cc(O)cc(O)c12", "FALSE"),
]

What is the recorded call for this molecule in the test? `O=C(NNc1c(Cl)cc(Cl)cc1Cl)NC(=O)c1ccccc1F` FALSE

====

Assay: chemical genetic growth profiling, strain panel (AID 1159580);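 also: tested at 20 µM; growth read once vehicle control cultures reached saturation at 30 °C; 1 = growth at the plate median or of vehicle wells; lower values mean less growth of the strain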
Settings: S. cerevisiae deletion strains, growth OD, locus YMR078C, strain ctf18, hits give low values
About 2,000 (36%) of roughly 5,500 compounds were called active. Roughly 18% stayed inconclusive and do not appear here. This is one part of the list.
I'd be grateful if you could share measured normalized growth for these entries.

Field: example entries. Status: answers known.
# compound, normalized growth
records = [
    ("COC(=O)CCC(=O)O[C@H]1CCC2(C)C(CCC3C2C(=O)[C@@H](O)C2(C)C3CC3OC4(CCC(C)CO4)[C@@H](C)C32)C1 (stereo not given in full)", "0.994 (inactive)"),
    ("CN(C(=O)CN(CCO)CC(=O)N(C)C(C)(C)Cc1ccccc1)C(C)(C)Cc1ccccc1", "0.974 (inactive)"),
    ("CN(C)CCC(c1ccc(Br)cc1)c1ccccn1 (stereo not given)", "0.974 (inactive)"),
    ("C[C@H](N)[C@H](O)c1ccccc1", "0.993 (inactive)"),
    ("Cc1nc2ccccn2c(=O)c1CCN1CCC(C(=O)c2ccc(F)cc2)CC1", "0.994 (inactive)"),
]

Field: normalized growth. Fill in for each record below.
1. CCCCCC1C(=O)CCC1CC(=O)O (stereo not given)
2. O=c1cc(-c2cc(O)c(O)c(O)c2)oc2cc(O)cc(O)c12
3. C[C@@H]1O[C@@H](O[C@H]2C[C@@H](O)[C@]3(CO)C4C(CC[C@]3(O)C2)[C@@]2(O)CC[C@H](C3=CC(=O)OC3)[C@@]2(C)C[C@H]4O)[C@H](O)[C@H](O)[C@H]1O (stereo not given in full)
4. Cc1nc2sccn2c(=O)c1CCN1CCC(=C(c2ccc(F)cc2)c2ccc(F)cc2)CC1

1: 1.01 (inactive); 2: 0.998 (inactive); 3: 0.981 (inactive); 4: 1 (inactive)

Lookup result for `NC(N)=O` ; measured normalized growth: 0.992 (inactive)

====

Test: chemical genetic growth profiling, strain panel (AID 1159580);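 also: tested at 20 µM; growth read once vehicle control cultures reached saturation at 30 °C; 1 = growth at the plate median or of vehicle wells; lower values mean less growth of the strain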
Settings: S. cerevisiae deletion strains, growth OD, locus YEL003W, strain gim4, hits give low values
In all, about 5,500 compounds went through this assay and about 2,000 (36%) were called active. Not shown: some 18% with an inconclusive outcome. The list shows a part of the results.
I'd be grateful if you could share measured normalized growth for these entries.
Numbers only.

Field: example entries. Status: answers known.
# compound, normalized growth
records = [
    ("NC(=O)c1ncn(C2O[C@H](CO)[C@@H](O)[C@H]2O)c1N (stereo not given in full)", 1.03),
    ("CC(=O)O[C@H]1C[C@@H](OC(C)=O)C(C)(C)C2CC(=O)[C@]3(C)C(CC[C@@]4(C)[C@H](c5ccoc5)OC(=O)[C@H]5O[C@]543)[C@]21C (stereo not given in full)", 0.991),
    ("O=c1cc(-c2ccc(O)cc2)oc2cc(O)cc(O)c12", 0.997),
    ("O=c1[nH]cnc2[nH]ncc12", 1.01),
]

Lookup result for C[C@]12C=CC(=O)C=C1CCC1C3C[C@@H](O)[C@](O)(C(=O)CO)[C@@]3(C)C[C@H](O)[C@@]12F (stereo not given in full) ; measured normalized growth: 1

====

Assay: chemical genetic growth profiling, strain panel (AID 1159580);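 also: tested at 20 µM; growth read once vehicle control cultures reached saturation at 30 °C; 1 = growth at the plate median or of vehicle wells; lower values mean less growth of the strain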
Details: S. cerevisiae deletion strains, growth OD, locus YBR023C, strain chs3, hits give low values
Screen size: about 5,500 compounds; about 2,000 (36%) were called active. Inconclusive results (about 18%) are left out. This is one part of the list.
I'd be grateful if you could share measured normalized growth for these entries.
Give bare numbers.

# molecule, test.result
records = [
    ("C[C@H](CCC(=O)O)[C@H]1CCC2C3C(CC[C@@]21C)[C@@]1(C)CC[C@@H](O)C[C@H]1C[C@@H]3O (some centres not stated)", 0.987),
    ("Nc1ccn(C2O[C@H](CO)[C@@H](O)[C@H]2O)c(=O)n1 (some centres not stated)", 1),
    ("CC(CCC(=O)O)[C@H]1CCC2C3C[C@H](O)[C@@H]4C[C@H](O)CC[C@]4(C)C3CC[C@@]21C (some centres not stated)", 0.982),
    ("CN1CCN(C2=Nc3ccccc3Oc3ccc(Cl)cc32)CC1", 1),
    ("COC(=O)CCC(C)[C@H]1CCC2C3C(C[C@H](O)[C@@]21C)[C@@]1(C)CC[C@@H](O)C[C@H]1C[C@H]3O (some centres not stated)", 1),
    ("CCN(CCCc1ccccc1)CCCc1ccccc1", 0.96),
]

Lookup result for `COc1cc([C@H]2Oc3cc([C@H]4Oc5cc(O)cc(O)c5C(=O)[C@@H]4O)ccc3O[C@@H]2CO)ccc1O` ; measured normalized growth: 1.01
